The following molecules are listed with their measured cell viability (log2) values.
Test system: A673/TR/shEF
assay.info: cell viability (LOESS-normalised, relative to median of negative controls) (log2 ratio); higher = more viable cells (less compound effect), active = hit call of the paper (over 3 MAD below the median)
study.conditions: 2.5 µM; library screen: screen2; EWS-FLI1 expression: high (no doxycycline); treatment time: 72 h
The campaign covered roughly 3,200 compounds. About 300 (9.4%) showed activity. The list comes from a sample in which actives are over-represented; it also holds close analogues and randomly drawn compounds.

molecule: NC[C@@H]1O[C@H](O[C@@H]2[C@@H](CO)OC(O[C@H]3C(O[C@H]4O[C@H](CO)[C@@H](O)[C@H](O)[C@H]4N)[C@@H](N)C[C@@H](N)[C@@H]3O)[C@@H]2O)[C@H](N)[C@@H](O)[C@@H]1O (some centres undefined)
cell viability (log2): 0.19
--
molecule: CC(/C=C/C=C(\C)c1cc(C(C)(C)C)cc(C(C)(C)C)c1)=C\C(=O)O
cell viability (log2): 0.0952
--
molecule: CCN1CCC[C@H]1CNC(=O)c1c(OC)ccc(I)c1O
cell viability (log2): 0.0364
--
molecule: CCc1nc(N)nc(N)c1-c1ccc(Cl)cc1
cell viability (log2): 0.122

Reference source: the supplement of paper PMC6089552
